Provenance of the data: ChEMBL document CHEMBL4480449

system: LNCaP; test: Cytotoxicity against human LNCAP cells after 72 hrs by MTT assay; format: functional, cell-based; conditions: Homo sapiens, LNCaP, 72 h
pIC50: −log10 of the molar value.
OUTCOME_MEASURE: pIC50

Example entries and their recorded answers appear below.
{"columns": ["MOLECULE", "pIC50"],
 "data": [
  ["CC[C@@]12C=C(C(=O)OC)C3=Nc4c(cc(O)c(OC)c4OC)[C@@]34CCN([C@@H]3c5cc6c(cc5O[C@@H]3[C@H]1O)NC1=C(C(=O)OC)C[C@]3(CC)[C@@H]5O[C@@H]5CN5CC[C@@]16[C@@H]53)[C@@H]24", "< 5.00"],
  ["CC[C@@]12CC(C(=O)OC)=C3N=C4C(=CC(=O)C(OC)=C4OC)[C@@]34CCN([C@@H]3c5cc6c(cc5O[C@@H]3[C@H]1O)NC1=C(C(=O)OC)C[C@]3(CC)[C@@H]5O[C@@H]5CN5CC[C@@]16[C@@H]53)[C@H]42", "< 5.00"]
]}

Okay, next one:
Report pIC50 on LNCaP for this entry: CC[C@@]12CC(C(=O)OC)=C3Nc4cc5c(cc4[C@@]34CCN(C[C@H]3O[C@H]31)[C@@H]24)[C@@H]1[C@H](O5)[C@@H](O)[C@@]2(CC)CC(C(=O)OC)=C3Nc4c(cc(O)c(OC)c4OC)[C@@]34CCN1[C@@H]24 < 5.00
